Exercise: state measured Rate of encapsulation for each of the molecules provided.
Assay: Rate of encapsulation of Luc DNA in lipid nanoparticles
Assay type: physicochemical
Set-up: unit: %
Details: Luc DNA-encapsulated lipid nanoparticles; cationic lipid:DPPC:cholesterol:GM-020=60:10.6:28:1.4 molar ratio
Lab note: record the figure alone, no unit after it.

Input: Given the entry "CCCCCCOC(=O)CCCCCC(=O)OCC(COC(=O)CCCCCC(=O)OCCCCCC)(COC(=O)CCCN(C)C)COC(=O)CC(CCCCC)CCCCC" , report its measured Rate of encapsulation.
Output: 92.4

Input: Given the entry "CCCCCC(CCCCC)CC(=O)OCC(COC(=O)CCCCCCCC(=O)OCCCC)(COC(=O)CCCCCCCC(=O)OCCCC)COC(=O)CCCN(C)C" , report its measured Rate of encapsulation.
Output: 89.9

Input: Given the entry CCCCCCCCCCC(C(=O)OC)C(=O)OCC(COC(=O)CCCN(C)C)(COC(=O)CC(CCCCC)CCCCC)COC(=O)C(CCCCCCCCCC)C(=O)OC (stereo not drawn) , report its measured Rate of encapsulation.
Output: 94.5

* * *

Test: Rate of encapsulation of Luc DNA in lipid nanoparticles
Type: physicochemical
Parameters: unit: %
Settings: Luc DNA-encapsulated lipid nanoparticles; cationic lipid:DPPC:cholesterol:GM-020=60:10.6:28:1.4 molar ratio
quantity.measured: Rate of encapsulation
Lab note: record the figure alone, no unit after it.

Input: Given the entry "CCCCCCCCCCOC(=O)CCCCC(=O)OCC(COC(=O)CCCCC(=O)OCCCCCCCCCC)(COC(=O)CCCN(C)C)COC(=O)CC(CCCCC)CCCCC" , report its measured Rate of encapsulation.
Output: 95.6

Input: Given the entry CCCCCCCOC(=O)CCCCC(=O)OCC(COC(=O)CCCCC(=O)OCCCCCCC)(COC(=O)CCCN(C)C)COC(=O)CC(CCC)CCCCCCC (stereo not drawn) , report its measured Rate of encapsulation.
Output: 94.9

Input: Given the entry "CCCCCC(CCCCC)CC(=O)OCC(COC(=O)CCCCC(=O)OCC(CCC)CCC)(COC(=O)CCCCC(=O)OCC(CCC)CCC)COC(=O)CCCN(CC)C(C)C" , report its measured Rate of encapsulation.
Output: 97.0

Input: Given the entry "CCCCCC(CCCCC)OC(=O)CCC(=O)OCC(COC(=O)CCCN(C)C)(COC(=O)CCC(=O)OC(CCCCC)CCCCC)COC(=O)CCC(=O)OC(CCCCC)CCCCC" , report its measured Rate of encapsulation.
Output: 98.5

Input: Given the entry "CCCCCCCOC(=O)CCCCCCCC(=O)OCC(COC(=O)CCCCCCCC(=O)OCCCCCCC)(COC(=O)CCCN(C)C)COC(=O)CC(CCCCC)CCCCC" , report its measured Rate of encapsulation.
Output: 77.6

Input: Given the entry "CCCCCCCOC(=O)CCCCC(=O)OCC(COC(=O)CCN(C)C)(COC(=O)CC(CCCCC)CCCCC)COC(=O)CC(CCCCC)CCCCC" , report its measured Rate of encapsulation.
Output: 95.9

* * *

Assay: Particle size of Luc DNA-encapsulated lipid nanoparticles
Type: physicochemical
Details: cationic lipid:DPPC:cholesterol:GM-020=60:10.6:28:1.4 molar ratio
Exercise: state measured Particle size (nm) for each of the compounds provided.
Numbers only here, please. The scale is nm.

Input: Given the entry CCCCCCCOC(=O)CCCCC(=O)OCC(COC(=O)CCCCC(=O)OCCCCCCC)(COC(=O)CCCN(C(C)C)C(C)C)COC(=O)CC(CCCCC)CCCCC [Example 92] , report its measured Particle size (nm).
Output: 125.7

Input: Given the entry CCCCCCCCCOC(=O)CCCCC(=O)OCC(COC(=O)CCCN(C)C)(COC(=O)CC(CCCCC)CCCCC)COC(=O)CC(CCCCC)CCCCC [Example 50] , report its measured Particle size (nm).
Output: 86.5

Input: Given the entry CCCCCC(CCCCC)CC(=O)OCC(COC(=O)CCCCC(=O)OCCCC)(COC(=O)CCN(C)C)COC(=O)CC(CCCCC)CCCCC [Example 19] , report its measured Particle size (nm).
Output: 89.8

Input: Given the entry CCCCCCCOC(=O)CCCCC(=O)OCC(COC(=O)CCCN(C)C)(COC(=O)CC(CCC)CCCCCCC)COC(=O)CC(CCC)CCCCCCC (centres unmarked) [Example 31] , report its measured Particle size (nm).
Output: 97.9

Input: Given the entry CCCCCC(CCCCC)CC(=O)OCC(COC(=O)CCCCC(=O)OCC(CCC)CCC)(COC(=O)CCCCC(=O)OCC(CCC)CCC)COC(=O)CCCN(CC)C(C)C [Example 116] , report its measured Particle size (nm).
Output: 122.0

Input: Given the entry CCCCCC(CCCCC)CC(=O)OCC(COC(=O)CCCCCCCC(=O)OC)(COC(=O)CCCN(C)C)COC(=O)CC(CCCCC)CCCCC [Example 36] , report its measured Particle size (nm).
Output: 127.9

Input: Given the entry CCCCCCCCCCOC(=O)CCCCC(=O)OCC(COC(=O)CCCCC(=O)OCCCCCCCCCC)(COC(=O)CCCN(C)C)COC(=O)CC(CCCCC)CCCCC [Example 45] , report its measured Particle size (nm).
Output: 119.0

Input: Given the entry CCCCCCCCCOC(=O)CCC(=O)OCC(COC(=O)CCCN(C)C)(COC(=O)CCC(=O)OCCCCCCCCC)COC(=O)CC(CCCCC)CCCCC [Example 97] , report its measured Particle size (nm).
Output: 118.7

Input: Given the entry CCCCCCCOC(=O)CCCCC(=O)OCC(COC(=O)CCCCC(=O)OCCCCCCC)(COC(=O)CCCN(C)CCO)COC(=O)CC(CCCCC)CCCCC [Example 93] , report its measured Particle size (nm).
Output: 145.6

Input: Given the entry CCCCCCCCCCC(C(=O)OC)C(=O)OCC(COC(=O)CCCN(C)C)(COC(=O)CC(CCCCC)CCCCC)COC(=O)C(CCCCCCCCCC)C(=O)OC (centres unmarked) [Example 134] , report its measured Particle size (nm).
Output: 103.0

Input: Given the entry CCCCCCCCCOC(=O)CCCCC(=O)OCC(COC(=O)CCCCC(=O)OCCCCCCCCC)(COC(=O)CCCCC(=O)OCCCCCCCCC)COC(=O)CCCN(C)C [Example 41] , report its measured Particle size (nm).
Output: 138.0

Input: Given the entry CCCCCCCCC(C(=O)OC)C(=O)OCC(COC(=O)CCCN(C)C)(COC(=O)CC(CCCCC)CCCCC)COC(=O)C(CCCCCCCC)C(=O)OC (centres unmarked) [Example 132] , report its measured Particle size (nm).
Output: 129.2

Input: Given the entry CCCCCCCCC(C(=O)OC)C(=O)OCC(COC(=O)CCCN(CC)C(C)C)(COC(=O)CC(CCCCC)CCCCC)COC(=O)C(CCCCCCCC)C(=O)OC (centres unmarked) [Example 133] , report its measured Particle size (nm).
Output: 133.4

Input: Given the entry CCCCCCCOC(=O)CCCCC(=O)OCC(COC(=O)CCN(C)C)(COC(=O)CC(CCCCC)CCCCC)COC(=O)CC(CCCCC)CCCCC [Example 15] , report its measured Particle size (nm).
Output: 89.5

Input: Given the entry CCCCCC(CCCCC)CC(=O)OCC(COC(=O)CCCCC(=O)OCCCC)(COC(=O)CCCN(C)C)COC(=O)CC(CCCCC)CCCCC [Example 20] , report its measured Particle size (nm).
Output: 104.2

Input: Given the entry CCCCCCCOC(=O)CCCCC(=O)OCC(COC(=O)CCCCC(=O)OCCCCCCC)(COC(=O)CCCN(C)C)COC(=O)CC(CCCC)CCCC [Example 84] , report its measured Particle size (nm).
Output: 172.6

Input: Given the entry CCCCCCCCCCOC(=O)CCCCC(=O)OCC(COC(=O)CCCN(C)C)(COC(=O)CC(CCCCC)CCCCC)COC(=O)CC(CCCCC)CCCCC [Example 51] , report its measured Particle size (nm).
Output: 83.9

Input: Given the entry CCCCCC(CCCCC)COC(=O)CCC(=O)OCC(COC(=O)CCCN(C)C)(COC(=O)CCC(=O)OCC(CCCCC)CCCCC)COC(=O)CCC(=O)OCC(CCCCC)CCCCC [Example 37] , report its measured Particle size (nm).
Output: 124.1

Input: Given the entry CCCCCC(CCCCC)CC(=O)OCC(COC(=O)CCCCCCCC(=O)OCCCC)(COC(=O)CCCN(C)C)COC(=O)CC(CCCCC)CCCCC [Example 34] , report its measured Particle size (nm).
Output: 184.3

Input: Given the entry CCCCCCCCOC(=O)CCCCC(=O)OCC(COC(=O)CCCN(C)C)(COC(=O)CC(CCCCC)CCCCC)COC(=O)CC(CCCCC)CCCCC [Example 49] , report its measured Particle size (nm).
Output: 112.8

Input: Given the entry CCCCCCCOC(=O)CCCCC(=O)OCC(COC(=O)CCCN(CC)CC)(COC(=O)CC(CCCCC)CCCCC)COC(=O)CC(CCCCC)CCCCC [Example 17] , report its measured Particle size (nm).
Output: 120.7

Input: Given the entry CCCCCC(CCCCC)CC(=O)OCC(COC(=O)CCCCCCCC(=O)OCCCC)(COC(=O)CCCCCCCC(=O)OCCCC)COC(=O)CCCN(C)C [Example 33] , report its measured Particle size (nm).
Output: 145.7

Input: Given the entry CCCCCC(CCCCC)CC(=O)OCC(COC(=O)CCCCC(=O)OCC(CCC)CCC)(COC(=O)CCCCC(=O)OCC(CCC)CCC)COC(=O)CCCN(C)C [Example 115] , report its measured Particle size (nm).
Output: 109.6
